Molecular target: Voltage-gated inwardly rectifying potassium channel KCNH2 (Homo sapiens)
Assay: qHTS Assay for Small Molecule Inhibitors of the Human hERG Channel Activity (AID 588834);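 further: lower thallium flux fluorescence means stronger hERG block; nearly all actives have a fitted effect of over 50% in size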
Conditions: U2OS BacMam hERG, FluxOR thallium flux fluorescence; series mostly up to 46.1 µM
Experimental: NIH Chemical Genomics Center [NCGC] National Institutes of Environmental Health Sciences [NIEHS] National Toxicology Program [NTP] We have developed a 1536-well cell-based assay for quantitative high throughput screening (qHTS) to determine in vitro hERG channel blockage as a measure of cardio toxicity with small molecules. […] 13. Read fluorescence Intensity on FDSS for 10 Sec with 1 sec interval […] 15. Read fluorescence Intensity on FDSS for 2 min with 1 sec interval […]
Inconclusive results are not listed. Activity calls are given as the source filed them. The call rests on the fitted dose curve; in most records, active means well fitted inhibition curve with a large enough effect; inconclusive means small, poorly fitted or top-dose-only effect; inactive means flat fitted curve, though single readings scatter.
Give your call using only these classes: active, inactive

Example entries and their recorded answers appear below.
compound=NC/C=C\C(=O)O system_under_test="Voltage-gated inwardly rectifying potassium channel KCNH2 (Homo sapiens)" class_name=inactive
compound=O=C(c1ccc2c(c1)OCCO2)N1CCCCC1 system_under_test="Voltage-gated inwardly rectifying potassium channel KCNH2 (Homo sapiens)" class_name=inactive
compound=CNc1cc(NS(=O)(=O)c2ccc(N)cc2)nc(NC)n1 system_under_test="Voltage-gated inwardly rectifying potassium channel KCNH2 (Homo sapiens)" class_name=inactive
compound=N[C@@H](CS(=O)O)C(=O)O system_under_test="Voltage-gated inwardly rectifying potassium channel KCNH2 (Homo sapiens)" class_name=inactive
compound=O=C(O)[C@H]1NCCC[C@H]1C(=O)O system_under_test="Voltage-gated inwardly rectifying potassium channel KCNH2 (Homo sapiens)" class_name=inactive

Query: How was NC(=Nc1ccccc1)NC(=O)c1nc(Cl)c(N)nc1N classified in this test?
Reply: active

Query: How was CO/N=C(\C(=O)N[C@@H]1C(=O)N2C(C(=O)O)=C(CSc3nc(=O)c(O)nn3C)CSC12)c1csc(N)n1 (some centres not stated) classified in this test?
Reply: inactive

Hey, just so you know, these numbers are from PubChem BioAssay (NCATS).
